Provenance of the data: ChEMBL document CHEMBL1138182

- assay protocol: Permeability in MDCK cells at 10 uM
- Format: ADME, cell-based, Canis lupus familiaris
- details: dog, read-out: permeability
Papp at 10 µM for assorted molecules
All answers are understood in ×10⁻⁶ cm/s, so give the number only.

Example entries and their recorded answers appear below.
CC(C)C[C@H](NC(=O)c1cc2ccccc2o1)C(=O)N[C@@H]1C(=O)CN(S(=O)(=O)c2ccccn2)CC[C@@H]1C: 55
CC(C)C[C@H](NC(=O)c1cc2ccccc2o1)C(=O)N[C@H]1CCCN(S(=O)(=O)c2ccccn2)CC1=O: 57
CC(C)C[C@H](NC(=O)c1cc2ccccc2o1)C(=O)N[C@H]1C[C@H](C)CN(S(=O)(=O)c2ccccn2)CC1=O: 49

Consider the additional molecule presented here.
Recorded Papp at 10 µM (molecule CC(C)C[C@H](NC(=O)c1cc2ccccc2o1)C(=O)N[C@H]1CC[C@@H](C)N(S(=O)(=O)c2ccccn2)CC1=O ): 47

* * *

- assay protocol: Half life in iv dosed cynomolgus monkey
- Type: ADME, organism-based, Macaca fascicularis
- details: in vivo
readout type: half-life (h)
All answers are understood in h, so give the number only.

CC(C)C[C@H](NC(=O)c1cc2ccccc2o1)C(=O)N[C@H]1CCCN(S(=O)(=O)c2ccccn2)CC1=O: 0.608

Recorded half-life (compound CC(C)C[C@H](NC(=O)c1cc2ccccc2o1)C(=O)N[C@H]1CC[C@@H](C)N(S(=O)(=O)c2ccccn2)CC1=O [RELACATIB] ): 2.8

* * *

- assay protocol: Protein binding in plasma
- Type: ADME, cell-free
- details: rat, read-out: PPB (converted)
readout type: fraction unbound
Just the number.

Example entries and their recorded answers appear below.
CC(C)C[C@H](NC(=O)c1cc2ccccc2o1)C(=O)N[C@H]1C[C@H](C)CN(S(=O)(=O)c2ccccn2)CC1=O: 0.044
CC(C)C[C@H](NC(=O)c1cc2ccccc2o1)C(=O)N[C@H]1CC[C@@H](C)N(S(=O)(=O)c2ccccn2)CC1=O [RELACATIB]: 0.032
CC(C)C[C@H](NC(=O)c1cc2ccccc2o1)C(=O)N[C@H]1CCCN(S(=O)(=O)c2ccccn2)CC1=O: 0.03

Recorded fraction unbound (compound CC(C)C[C@H](NC(=O)c1cc2ccccc2o1)C(=O)N[C@@H]1C(=O)CN(S(=O)(=O)c2ccccn2)CC[C@@H]1C ): 0.053

* * *

- experimental target: UniProtKB P43235
- Sequence (P43235 whole entry): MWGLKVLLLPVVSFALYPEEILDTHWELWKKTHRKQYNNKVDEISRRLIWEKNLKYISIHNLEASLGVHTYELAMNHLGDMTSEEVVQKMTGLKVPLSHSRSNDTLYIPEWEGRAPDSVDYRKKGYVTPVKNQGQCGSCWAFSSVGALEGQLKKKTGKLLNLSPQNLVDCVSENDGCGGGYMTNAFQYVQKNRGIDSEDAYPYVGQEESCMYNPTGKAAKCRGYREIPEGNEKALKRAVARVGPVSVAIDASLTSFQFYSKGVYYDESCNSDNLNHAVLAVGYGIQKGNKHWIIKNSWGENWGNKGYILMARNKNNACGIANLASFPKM
readout type: Ki (nM)
All answers are understood in nM, so give the number only.

Example entries and their recorded answers appear below.
CC(C)C[C@H](NC(=O)c1cc2ccccc2o1)C(=O)N[C@@H]1C(=O)CN(S(=O)(=O)c2ccccn2)CC[C@@H]1C: 0.0099
CC(C)C[C@H](NC(=O)c1cc2ccccc2o1)C(=O)N[C@@H]1C[C@H](C)CN(S(=O)(=O)c2ccccn2)CC1=O: 4.5
CC(C)C[C@H](NC(=O)c1cc2ccccc2o1)C(=O)N[C@H]1C(=O)CN(S(=O)(=O)c2ccccn2)CC[C@H]1C: 42

Recorded Ki (compound CC(C)C[C@H](NC(=O)c1cc2ccccc2o1)C(=O)N[C@H]1C(=O)CN(S(=O)(=O)c2ccccn2)CC[C@@H]1C ): 19

* * *

- assay protocol: Clearance in iv dosed cynomolgus monkey
- Type: ADME, organism-based, Macaca fascicularis
- details: in vivo
clearance for assorted compounds
All answers are understood in mL/min/kg, so give the number only.

CC(C)C[C@H](NC(=O)c1cc2ccccc2o1)C(=O)N[C@H]1CCCN(S(=O)(=O)c2ccccn2)CC1=O: 13.9

Consider the additional compound presented here.
Recorded clearance (compound CC(C)C[C@H](NC(=O)c1cc2ccccc2o1)C(=O)N[C@H]1CC[C@@H](C)N(S(=O)(=O)c2ccccn2)CC1=O [RELACATIB] ): 11.7
